- System: Pseudomonas aeruginosa
- Assay comment: Minimum inhibitory concentration in vitro against Pseudomonas aeruginosa (32104)
- Assay type: functional
Attribute measured: MIC (µg/mL)
A number alone suffices; assume µg/mL.

As a guide, the following entries are already answered.
{"columns": ["Molecule", "MIC / µg/mL"],
 "data": [
  ["N[C@H]1CN(c2c(F)cc3c(=O)c(C(=O)O)cn(C4CC4F)c3c2Cl)CC12CC2 (stereo in doubt; 40)", 6.25],
  ["N[C@@H]1CN(c2c(F)cc3c(=O)c(C(=O)O)cn(C4CC4F)c3c2Cl)CC12CC2 (stereo in doubt; 38)", 1.56],
  ["N[C@H]1CN(c2c(F)cc3c(=O)c(C(=O)O)cn(C4CC4F)c3c2Cl)CC12CC2 (stereo in doubt; 39)", 1.56]
]}

Data request: Hello, I am looking for reported MIC with Pseudomonas aeruginosa for N[C@@H]1CN(c2c(F)cc3c(=O)c(C(=O)O)cn(C4CC4F)c3c2Cl)CC12CC2 (stereo in doubt; 37) . Could you help?
Data returned: 0.39
